System: A-375
test-protocol: Antiproliferative activity against human A375 cells after 48 hrs by MTT assay
Format: functional, cell-based
condition-label: A-375, 48 h
// values below are reported IC50
measured-metric: IC50 (µM)

chemical_smiles=Cc1sc(-c2ccccc2)c(C(=O)c2ccccc2)c1C readout_units=µM comparison_sign== experimental_result=31.1
chemical_smiles=CC(=O)O[C@H]1C(=O)[C@@]2(C)[C@H]([C@H](OC(=O)c3ccccc3)[C@]3(O)C[C@H](OC(=O)[C@H](O)[C@@H](NC(=O)c4ccccc4)c4ccccc4)C(C)=C1C3(C)C)[C@]1(OC(C)=O)CO[C@@H]1C[C@@H]2O readout_units=µM comparison_sign== experimental_result=0.68
chemical_smiles=Cc1ccc(C#Cc2sc(C)c(C)c2C(=O)c2ccc([N+](=O)[O-])cc2)cc1 readout_units=µM comparison_sign== experimental_result=26.4
chemical_smiles=O=C(c1ccc([N+](=O)[O-])cc1)c1c(-c2ccccc2)sc2c1CCCCC2 readout_units=µM comparison_sign== experimental_result=1.07
chemical_smiles=COc1ccc(C(=O)c2c(-c3ccccc3)sc3c2CCCC3)cc1 readout_units=µM comparison_sign== experimental_result=5.34
chemical_smiles=COc1ccc(C(=O)c2c(C#Cc3ccccc3)sc3c2CCCC3)cc1 readout_units=µM comparison_sign== experimental_result=1.9
chemical_smiles=O=C(c1ccc([N+](=O)[O-])cc1)c1c(-c2ccccc2)sc2c1CCCC2 readout_units=µM comparison_sign== experimental_result=20.5
chemical_smiles=Cc1ccc(C#Cc2sc(C)c(C)c2C(=O)c2ccc(C)cc2)cc1 readout_units=µM comparison_sign=> experimental_result=100
chemical_smiles=Cc1ccc(C#Cc2sc3c(c2C(=O)c2ccc(C)cc2)CCCC3)cc1 readout_units=µM comparison_sign== experimental_result=30.7
chemical_smiles=Cc1sc(-c2ccccc2)c(C(=O)c2ccc([N+](=O)[O-])cc2)c1C readout_units=µM comparison_sign=> experimental_result=100
chemical_smiles=COc1cc(C(=O)c2c(C#Cc3ccccc3)sc(C)c2C)cc(OC)c1OC readout_units=µM comparison_sign== experimental_result=1.17
chemical_smiles=COc1cc(C(=O)c2c(C#Cc3ccc(C)cc3)sc3c2CCCC3)cc(OC)c1OC readout_units=µM comparison_sign== experimental_result=22.5
chemical_smiles=O=C(c1ccccc1)c1c(-c2ccccc2)sc2c1CCCC2 readout_units=µM comparison_sign== experimental_result=16.3
chemical_smiles=O=C(c1ccc([N+](=O)[O-])cc1)c1c(C#Cc2ccccc2)sc2c1CCCC2 readout_units=µM comparison_sign== experimental_result=0.81
chemical_smiles=O=C(c1ccccc1)c1c(C#Cc2ccccc2)sc2c1CCCC2 readout_units=µM comparison_sign== experimental_result=4.63
chemical_smiles=Cc1ccc(C(=O)c2c(-c3ccccc3)sc3c2CCCC3)cc1 readout_units=µM comparison_sign== experimental_result=27
chemical_smiles=Cc1ccc(C(=O)c2c(C#Cc3ccccc3)sc3c2CCCC3)cc1 readout_units=µM comparison_sign== experimental_result=10.1
